System: Mus musculus
METHOD_NOTES: Toxicity in male CDF1 mouse allografted with mouse P388 cells assessed as survivors on day 5 at 12.5 mg/kg, ip using hydroxypropylcellulose suspension
Format: organism-based
Parameters: dose 12.5 mg/kg, route intraperitoneal
EXPERIMENTAL_CONDITIONS: in vivo

[
  {
    "TEST_SMILES": "COc1ccc(-n2c(C)c(COC(C)=O)c(COC(C)=O)c2C)cc1",
    "Activity": "Non-toxic"
  },
  {
    "TEST_SMILES": "CNC(=O)OCc1c(COC(=O)NC)c(C)n(-c2ccc(Br)cc2)c1C",
    "Activity": "Non-toxic"
  },
  {
    "TEST_SMILES": "CCCCc1ccc(-n2c(C)c(COC(=O)NC)c(COC(=O)NC)c2C)cc1",
    "Activity": "Non-toxic"
  }
]
